Target under test: GST-tagged recombinant human TYRO3 kinase domain (Homo sapiens, UniProt Q06418)
Construct: GST-tagged recombinant human TYRO3 kinase domain
Sequence (Q06418 518-790 limits assumed): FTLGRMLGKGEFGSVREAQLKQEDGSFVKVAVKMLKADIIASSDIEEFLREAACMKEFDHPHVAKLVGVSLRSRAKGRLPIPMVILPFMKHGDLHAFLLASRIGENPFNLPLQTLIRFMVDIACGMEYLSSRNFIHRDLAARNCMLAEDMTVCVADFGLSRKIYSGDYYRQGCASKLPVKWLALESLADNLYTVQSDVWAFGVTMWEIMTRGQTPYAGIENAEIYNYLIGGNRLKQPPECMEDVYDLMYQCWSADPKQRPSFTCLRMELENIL
Test summary: TYRO3 Enzyme Assay (LanthaScreen Eu Kinase Binding)
Condition parameters: averaged IC50; TYRO3 5 nM; 60-minute incubation at 22° C.; TR-FRET
Experimental: Compounds disclosed herein were screened for their ability to inhibit TYRO3 kinase using Invitrogen's LanthaScreenTM Eu Kinase Binding technology. […] After a 60-minute incubation at 22° C., the reaction was measured using a PerkinElmer EnVision multimode plate reader via TR-FRET dual wavelength detection, and the percent of control (POC) calculated using a ratiometric emission factor. […]
Endpoint: pIC50
One number for each entry, as −log10 of the molar value.

I'm hoping you can list pIC50 for every compound here, please.
1. COc1cc2nccc(Oc3ccc(NC(=O)c4cn(C(C)C)cc(-c5ccc(F)c(F)c5)c4=O)nc3)c2cc1OC
2. COc1cc2nccc(Oc3ccc(NC(=O)c4cn(CC(C)(C)O)cc(-c5ccc(F)cc5)c4=O)nc3)c2cc1OC
3. COc1cc2nccc(Oc3ccc(NC(=O)c4cn(CCN(C)C)cc(-c5ccc(F)c(F)c5)c4=O)nc3)c2cc1OC
4. COc1ccc(-c2cn(C(C)C)cc(C(=O)Nc3ccc(Oc4ccnc5cc(OC)c(OC)cc45)cn3)c2=O)cc1
5. COc1cc2nccc(Oc3ccc(NC(=O)c4cn(C(C)C)cc(-c5ccc(F)cc5Cl)c4=O)nc3)c2cc1OC
6. COc1cc2nccc(Oc3ccc(NC(=O)c4cn(CC5CCOCC5)cc(-c5ccc(F)cc5)c4=O)nc3)c2cc1OC

Result:
7.96
7.89
7.96
7.70
8.40
7.82

Problem: Give its pIC50 value. Item: COc1cc2ncc(C#N)c(Oc3ccc(NC(=O)c4cn(C(C)C)cc(-c5ccc(F)cc5)c4=O)nc3)c2cc1OC
Result: 6.59

###

Please respond with reported IC50 for every item in the list.
Target under test: human MET kinase D1228N (Homo sapiens, UniProt P08581, D1228N)
Construct: GST-tagged recombinant human MET kinase domain
Sequence (P08581 1078-1345 D1228N): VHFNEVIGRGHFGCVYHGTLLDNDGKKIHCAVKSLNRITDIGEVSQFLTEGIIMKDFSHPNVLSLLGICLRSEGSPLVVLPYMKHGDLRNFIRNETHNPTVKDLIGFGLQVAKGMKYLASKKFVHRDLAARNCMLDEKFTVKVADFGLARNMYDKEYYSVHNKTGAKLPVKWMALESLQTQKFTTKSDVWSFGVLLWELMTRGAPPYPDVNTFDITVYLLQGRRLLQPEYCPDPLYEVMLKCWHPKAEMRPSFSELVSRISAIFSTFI
Test summary: c-Met Enzyme Assay, D1228N mutant
Condition parameters: averaged IC50; D1228N 2 nM; 60-minute incubation at 22° C.; read-out: D1228 N IC50
Numbers only, in µM.

I'm hoping you can list IC50 for every compound here, please.
1. COc1cc2nccc(Oc3ccc(NC(=O)c4cn(CC(=O)N5CCOCC5)cc(-c5ccc(F)cc5F)c4=O)nc3)c2cc1OC
2. COc1cc2nccc(Oc3ccc(NC(=O)c4cn(CC(=O)N(C)C)cc(-c5ccc(Cl)cc5)c4=O)nc3)c2cc1OC
3. COc1cc2nccc(Oc3ccc(NC(=O)c4c[nH]cc(-c5ccc(F)cc5)c4=O)nc3)c2cc1OC
4. COc1cc2nccc(Oc3ccc(NC(=O)c4cn(C(C)C)cc(-c5ccc(F)cc5)c4=O)cn3)c2cc1OC

Result:
1: 0.0737; 2: 0.0378; 3: 0.0192; 4: 0.0077

###

Target under test: human MET kinase Y1230C (Homo sapiens, UniProt P08581, Y1230C)
Construct: GST-tagged recombinant human MET kinase domain
Sequence (P08581 1078-1345 Y1230C): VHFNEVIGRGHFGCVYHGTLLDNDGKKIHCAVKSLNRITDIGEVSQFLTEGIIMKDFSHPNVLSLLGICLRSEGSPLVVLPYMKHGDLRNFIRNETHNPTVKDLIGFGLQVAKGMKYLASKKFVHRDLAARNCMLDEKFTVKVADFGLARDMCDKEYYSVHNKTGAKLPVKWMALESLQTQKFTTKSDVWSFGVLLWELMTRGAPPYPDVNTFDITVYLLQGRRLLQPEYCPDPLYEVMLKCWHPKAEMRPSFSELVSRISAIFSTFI
Test summary: c-Met Enzyme Assay, Y1230C mutant
Condition parameters: averaged IC50; Y1230C 2 nM; 60-minute incubation at 22° C.; read-out: Y1230 C IC50
Please respond with reported IC50 for every item in the list.
Answers are plain numbers, in nM.

Here is how some molecules turned out for IC50.
Problem: Look up IC50 with human MET kinase Y1230C (Homo sapiens, UniProt P08581, Y1230C) for this molecule: COc1cc2nccc(Oc3ccc(NC(=O)c4cn(CCN(C)C)cc(-c5ccc(F)c(F)c5)c4=O)nc3)c2cc1OC
Result: 1.4

Problem: Look up IC50 with human MET kinase Y1230C (Homo sapiens, UniProt P08581, Y1230C) for this molecule: COc1cc2nccc(Oc3ccc(NC(=O)c4cn(CC(=O)N(C)C)cc(-c5ccc(F)cc5F)c4=O)nc3)c2cc1OC
Result: 3.3

Problem: Look up IC50 with human MET kinase Y1230C (Homo sapiens, UniProt P08581, Y1230C) for this molecule: COc1cc2nccc(Oc3ccc(NC(=O)c4c[nH]cc(-c5ccc(F)cc5)c4=O)nc3)c2cc1OC
Result: 6.5

Problem: Look up IC50 with human MET kinase Y1230C (Homo sapiens, UniProt P08581, Y1230C) for this molecule: COc1cc2nccc(Oc3ccc(NC(=O)c4cn(C(C)C)cc(-c5ccc(F)cc5)c4=O)cn3)c2cc1OC
Result: 2.2

Problem: Look up IC50 with human MET kinase Y1230C (Homo sapiens, UniProt P08581, Y1230C) for this molecule: COc1cc2nccc(Oc3ccc(NC(=O)c4cn(C)cc(-c5ccc(F)cc5)c4=O)nc3)c2cc1OC
Result: 9.5

Problem: Look up IC50 with human MET kinase Y1230C (Homo sapiens, UniProt P08581, Y1230C) for this molecule: COc1cc2nccc(Oc3ccc(NC(=O)c4cn(C(C)C)cc(-c5ccc(F)cc5OC)c4=O)nc3)c2cc1OC
Result: 6.7

Problem: Look up IC50 with human MET kinase Y1230C (Homo sapiens, UniProt P08581, Y1230C) for this molecule: COc1cc2nccc(Oc3ccc(NC(=O)c4cn(CC(=O)N(C)C)cc(-c5ccc(F)c(F)c5)c4=O)nc3)c2cc1OC
Result: 14.3

Problem: Look up IC50 with human MET kinase Y1230C (Homo sapiens, UniProt P08581, Y1230C) for this molecule: COc1cc2nccc(Oc3ccc(NC(=O)c4cn(C(C)C)cc(-c5ccc(F)cc5)c4=O)nc3)c2cc1OC
Result: 1.5

I'm hoping you can list IC50 for every molecule here, please.
1. COc1cc2nccc(Oc3ccc(NC(=O)c4cn(C(C)C)cc(-c5ccc(Cl)cc5)c4=O)nc3)c2cc1OC
2. CNC(=O)Cn1cc(C(=O)Nc2ccc(Oc3ccnc4cc(OC)c(OC)cc34)cn2)c(=O)c(-c2ccc(F)cc2)c1
3. COc1cc(-c2cn(C(C)C)cc(C(=O)Nc3ccc(Oc4ccnc5cc(OC)c(OC)cc45)cn3)c2=O)ccc1F
4. COc1ccc(-c2cn(C(C)C)cc(C(=O)Nc3ccc(Oc4ccnc5cc(OC)c(OC)cc45)cn3)c2=O)c(F)c1

Result:
[8.1, 2, 7.7, 69.3]

I'm hoping you can list IC50 for every molecule here, please.
1. COc1cc2nccc(Oc3ccc(NC(=O)c4cn(CCN(C)C)cc(-c5ccc(F)cc5F)c4=O)nc3)c2cc1OC
2. COc1cc2nccc(Oc3ccc(NC(=O)c4cn(CC(=O)N(C)C)cc(-c5ccc(Cl)cc5)c4=O)nc3)c2cc1OC

Result:
1: 1.7; 2: 10.4

I'm hoping you can list IC50 for every molecule here, please.
1. COc1cc2nccc(Oc3ccc(NC(=O)c4cn(C(C)C)cc(-c5ccc(F)c(F)c5)c4=O)nc3)c2cc1OC
2. CCn1cc(C(=O)Nc2ccc(Oc3ccnc4cc(OC)c(OC)cc34)cn2)c(=O)c(-c2ccc(F)cc2)c1
3. CCCn1cc(C(=O)Nc2ccc(Oc3ccnc4cc(OC)c(OC)cc34)cn2)c(=O)c(-c2ccc(F)cc2)c1
4. COc1cc2nccc(Oc3ccc(NC(=O)c4cn(CCC(C)C)cc(-c5ccc(Cl)cc5)c4=O)nc3)c2cc1OC
5. COc1cc2c(Oc3ccc(NC(=O)c4cn(C(C)C)c(C)c(-c5ccc(F)cc5)c4=O)nc3)ccnc2cc1F
6. COc1cc2nccc(Oc3ccc(NC(=O)c4cn(CC(=O)N5CCCC5)cc(-c5ccc(F)cc5F)c4=O)nc3)c2cc1OC

Result:
[12.4, 4.2, 3.1, 9.3, 9.4, 5.5]

I'm hoping you can list IC50 for every molecule here, please.
1. CCn1cc(C(=O)Nc2ccc(Oc3ccnc4ccc(OC)cc34)cn2)c(=O)c(-c2ccc(F)cc2)c1
2. CCOc1ccc2nccc(Oc3ccc(NC(=O)c4cn(C(C)C)cc(-c5ccc(F)cc5)c4=O)nc3)c2c1
3. COc1cc2nccc(Oc3ccc(NC(=O)c4cn(C(C)C)c(C)c(-c5ccc(F)c(F)c5)c4=O)nc3)c2cc1OC

Result:
1: 47; 2: 61.8; 3: 1.7

Problem: Look up IC50 with human MET kinase Y1230C (Homo sapiens, UniProt P08581, Y1230C) for this molecule: COc1cc2c(Oc3ccc(NC(=O)c4cn(C(C)C)cc(-c5ccc(F)cc5)c4=O)nc3)ccnc2cc1OCCCN1CCOCC1
Result: 3.2

###

Please respond with reported pIC50 for every item in the list.
Target under test: human MET kinase F1200I (Homo sapiens, UniProt P08581, F1200I)
Construct: GST-tagged recombinant human MET kinase domain
Sequence (P08581 1078-1345 F1200I limits assumed): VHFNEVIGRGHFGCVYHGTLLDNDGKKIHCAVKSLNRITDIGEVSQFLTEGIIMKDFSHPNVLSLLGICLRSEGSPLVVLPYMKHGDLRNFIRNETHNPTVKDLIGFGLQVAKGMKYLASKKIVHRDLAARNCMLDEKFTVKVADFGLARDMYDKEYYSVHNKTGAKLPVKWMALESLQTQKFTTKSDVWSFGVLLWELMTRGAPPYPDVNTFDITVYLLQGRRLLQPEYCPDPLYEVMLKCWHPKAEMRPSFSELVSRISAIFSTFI
Test summary: c-Met Enzyme Assay, F1200I mutant
Condition parameters: averaged IC50; F1200I 2 nM; 60-minute incubation at 22° C.
Answers are plain numbers, as −log10 of the molar value.

Here is how some compounds turned out for pIC50.
Problem: Give its pIC50 value. Item: COc1cc2nccc(Oc3ccc(NC(=O)c4cn(CCN(C)C)cc(-c5ccc(F)cc5F)c4=O)nc3)c2cc1OC
Result: 8.38

Problem: Give its pIC50 value. Item: CCCn1cc(C(=O)Nc2ccc(Oc3ccnc4cc(OC)c(OC)cc34)cn2)c(=O)c(-c2ccc(F)cc2)c1
Result: 8.38

Problem: Give its pIC50 value. Item: COc1cc2nccc(Oc3ccc(NC(=O)c4cn(CCC(C)C)cc(-c5ccc(F)c(F)c5)c4=O)nc3)c2cc1OC
Result: 7.94

Turning to the following compound.
Problem: Give its pIC50 value. Item: COc1ccc2nccc(Oc3ccc(NC(=O)c4cn(C(C)C)c(C)c(-c5ccc(F)cc5)c4=O)nc3)c2c1
Result: 8.34
